# composite z-score listing for each entry below
- subjectOfTest: Torsin-1A (Homo sapiens) (UniProt O14656)
- Sequence (O14656 whole entry, looked up): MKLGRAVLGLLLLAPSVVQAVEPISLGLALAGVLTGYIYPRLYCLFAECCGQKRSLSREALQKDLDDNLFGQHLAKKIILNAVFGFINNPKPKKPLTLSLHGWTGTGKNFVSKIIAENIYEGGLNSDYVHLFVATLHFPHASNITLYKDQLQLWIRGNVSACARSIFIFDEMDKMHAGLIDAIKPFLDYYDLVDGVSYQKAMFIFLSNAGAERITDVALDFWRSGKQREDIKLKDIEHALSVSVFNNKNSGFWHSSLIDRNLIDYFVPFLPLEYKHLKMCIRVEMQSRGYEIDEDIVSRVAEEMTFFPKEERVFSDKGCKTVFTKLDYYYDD
- protocolSummary: torsin A mutant lysate binding on microarrays – cell lysate, small-molecule microarray, COS7 lysate, 635/667 nm fluorescence, primary screen (AID 1150);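 further: score pools 667 nm emission and signal to noise measuring lysate protein binding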
- setupConditions: COS7 hTOR1A mutant lysate, 635 nm fluorescence, higher = more signal

{"molecule": "C=CCNC(=O)[C@@H]1[C@H]2C(=O)O[C@H](c3ccccc3)[C@H](c3ccccc3)N2[C@H](c2ccccc2OCCO)[C@@]12C(=O)N(C(=O)OCCOC)c1ccc(C#CC3(O)CCCCCC3)cc12", "composite z-score": 0.631}
{"molecule": "COC(=O)[C@@]1(Cc2ccc(F)cc2)[C@H]2c3cc(C(=O)N4CCCC4)n(Cc4ccc(C)c(F)c4F)c3C[C@H]2CN1C(=O)c1ccccc1", "composite z-score": -0.407}
{"molecule": "COc1ccc(C#Cc2ccc3c(c2)[C@]2(C(=O)N3)[C@H](c3ccc(OCCO)cc3)N3[C@H](c4ccccc4)[C@H](c4ccccc4)OC(=O)[C@H]3[C@@H]2C(=O)NC[C@H](O)c2ccccc2)cc1", "composite z-score": 0.327}
{"molecule": "CC1=C2[C@@H](CCc3ccccc3)OB(O)C[C@@H]2[C@@H]2C(=O)N(Cc3ccccc3)C(=O)[C@@H]2C1", "composite z-score": 0.333}
{"molecule": "COc1cc(C(O)C2C=CC3C(=O)N(C)C(=O)C3N2Nc2ccccc2)cc(OC)c1OC (stereo not given)", "composite z-score": 1.17}
{"molecule": "NC(=O)NCC#Cc1ccc2c(c1)[C@]1(C(=O)N2)[C@H](c2ccccc2OCCO)N2[C@H](c3ccccc3)[C@H](c3ccccc3)OC(=O)[C@H]2[C@@H]1C(=O)O", "composite z-score": 0.28}
{"molecule": "CCCCCN1CC=CC23O[C@@H]4/C=C\\CCC(C)OC(=O)C4[C@H]2C(=O)N(C(CO)C(C)C)[C@@H]3C1=O (stereo not given in full)", "composite z-score": -0.303}
{"molecule": "CN(C)c1ccc(C(O)C2C=CC3C(=O)NC(=O)C3N2Nc2ccccn2)cc1 (stereo not given)", "composite z-score": 0.927}
{"molecule": "CO[C@H]1O[C@H](CO)[C@@H](OC(=O)Nc2ccccc2)[C@H](OC(=O)c2cc3ccccc3[nH]2)[C@H]1OC(=O)c1cc2ccccc2[nH]1", "composite z-score": 0.311}
{"molecule": "CC#CCO[Si](C#Cc1ccccc1)(C(C)C)C(C)C", "composite z-score": -0.811}
{"molecule": "CO[C@H]1O[C@H](CO)[C@@H](OC(=O)Nc2ccc(Br)cc2)[C@@H]2OC(=O)[C@@H](Cc3ccccc3)C/C=C/C[C@H](Cc3ccccc3)C(=O)O[C@@H]12", "composite z-score": 0.91}
{"molecule": "[N-]=[N+]=Nc1ccccc1C[C@]1(C(=O)NCCN2CCOCC2)COC(c2ccc(OCCCO)cc2)=N1", "composite z-score": 1.75}
{"molecule": "CC(=O)N1CC2(CC2)CC1c1ccccc1 (stereo not given)", "composite z-score": 0.421}
{"molecule": "CC(C)c1ccc(NN2C(C(O)c3ccc(C#N)cc3)C=CC3C(=O)N(c4ccccc4)C(=O)C32)cc1 (stereo not given)", "composite z-score": 0.579}
{"molecule": "C=CCN1Cc2ccccc2[C@@H]2OC(c3ccc(OCCCO)cc3)=N[C@]2(CC=C)C1=O", "composite z-score": 0.966}
{"molecule": "O=C1OCCC=C[C@H]2OC34C=CCN(Cn5nnc6ccccc65)C(=O)[C@H]3N(CCCO)C(=O)[C@@H]4C12 (stereo not given in full)", "composite z-score": -2.04}
{"molecule": "CO[C@H]1O[C@H](CO)[C@@H](OC(=O)Nc2ccc3c(c2)OCO3)[C@H](OC(=O)Nc2ccc3c(c2)OCO3)[C@@H]1OC(=O)Nc1ccc2c(c1)OCO2", "composite z-score": 1.05}
{"molecule": "CCOC(=O)C[C@H]1[C@H](OC(=O)Cc2ccc3c(c2)OCO3)[C@@H](NC(=O)c2ccc3ccccc3n2)c2cc(OCCCO)ccc2N1C(=O)c1ccc2ccccc2n1", "composite z-score": 0.339}
{"molecule": "COC(=O)[C@@H]1N=C(c2ccc(OCCCO)cc2)O[C@@H]1C", "composite z-score": -0.425}
{"molecule": "NCCCCCNC(=O)[C@H]1C[C@H]2C(=O)N3CCC[C@H]3C(=O)N2[C@H]1c1cccc(OCCO)c1", "composite z-score": 0.264}
{"molecule": "CN(C)C(=O)[C@]1(CCC(=O)OC(C)(C)C)N=C(c2ccc(OCCCO)cc2)O[C@@H]1c1ccccc1CN=[N+]=[N-]", "composite z-score": 1.24}
{"molecule": "CC[C@@H]1C=C(C(=O)O)[C@H](c2ccc(C#N)cc2)N1S(=O)(=O)c1ccc(C)cc1", "composite z-score": 1.65}
{"molecule": "CCOC(=O)C[C@H]1[C@H](OC(=O)c2ccc(C(=O)c3ccccc3)cc2)[C@@H](NC(=O)C2CCCCC2)c2cc(OCCCO)ccc2N1C(=O)c1ccc2ccccc2n1", "composite z-score": 0.298}
{"molecule": "CCOC(=O)[C@@H]1CCCCN1C(=O)C(=O)OC", "composite z-score": -0.144}
{"molecule": "COC(=O)C/C=C/C[C@]1(O)C(=O)N(C)c2ccccc21", "composite z-score": 0.582}
{"molecule": "CCC#CCN(Cc1ccccc1Br)[C@H](/C=C/C1CC1)[C@@H](O)Cc1ccccc1", "composite z-score": 0.0257}
{"molecule": "CS(=O)(=O)CCOC(=O)C1=CC(c2ccc(CO)cc2)=CC(C2CC2)N(Cc2sc3ccccc3c2Cl)C=C1C(=O)OCCS(C)(=O)=O (stereo not given)", "composite z-score": 1.31}
{"molecule": "[N-]=[N+]=Nc1ccccc1C[C@]1(C(=O)N2CCOCC2)COC(c2ccc(OCCCO)cc2)=N1", "composite z-score": 0.507}
{"molecule": "CC(C)[Si]1(C(C)C)OCc2cc(C3CC3)nc(-c3ccc(Oc4ccccc4)cc3)c21", "composite z-score": -1.07}
{"molecule": "COC(=O)[C@@]1(Cc2ccc(F)cc2)[C@H]2c3cc(C(=O)N(C)C)n(Cc4ccc(OC(F)(F)F)cc4)c3C[C@H]2CN1C(=O)c1ccccc1", "composite z-score": 0.569}

// provenance: PubChem BioAssay
